Target: DRAK2 (Homo sapiens, UniProt O94768)
Sequence (O94768 1-372): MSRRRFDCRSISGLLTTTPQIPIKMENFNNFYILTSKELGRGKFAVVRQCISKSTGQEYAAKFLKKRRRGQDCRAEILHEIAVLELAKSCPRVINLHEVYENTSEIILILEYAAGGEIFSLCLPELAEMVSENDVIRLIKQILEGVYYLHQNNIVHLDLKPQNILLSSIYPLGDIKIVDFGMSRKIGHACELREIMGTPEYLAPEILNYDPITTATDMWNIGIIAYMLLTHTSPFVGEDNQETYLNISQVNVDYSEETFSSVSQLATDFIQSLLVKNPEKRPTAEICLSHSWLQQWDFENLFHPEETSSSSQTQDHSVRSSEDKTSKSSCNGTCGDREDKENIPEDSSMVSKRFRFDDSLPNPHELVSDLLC
Assay: KINOMEscan competition binding
Settings: read-out: %Inh DRAK2
metric-name: inhibition at 1 µM (%)
Answer with a number only, understood to be in %.

*Q* // query inhibition at 1 µM value for entry COc1cccc(OC)c1C(=O)Nc1cccc(-c2nn3ccccc3c2-c2ccnc(Nc3cccc(F)c3)n2)c1 [UNC10225310A]
*A* 12

*Q* Would you kindly share the measured inhibition at 1 µM for Cc1ccc(NC(=O)Nc2cccc(C(F)(F)F)c2)cc1 [UNC10225187A] ?
*A* 0

*Q* What value of measured inhibition at 1 µM is listed for Cn1cc(-c2cnc(N)c3c(-c4ccc5c(c4)CCN5C(=O)Cc4ccccc4)csc23)cn1 [UNC10225012A] ?
*A* 9

New cases:
*Q* Any idea what inhibition at 1 µM was measured for CS(=O)(=O)Cc1ccc(Nc2nccc(-c3c(-c4cccc(NC(=O)C5CCCCC5)c4)nn4ncccc34)n2)cc1 [UNC10225159A] ?
*A* 0

*Q* What value of inhibition at 1 µM has been reported for the following compound? O=c1cc(N2CCOCC2)nc2n(Cc3cccc(Cl)c3Cl)c(C3CC3)nn12 [UNC10225469A]
*A* 9

* * *

target: ERK2 (Homo sapiens, UniProt P28482); test: KINOMEscan competition binding; conditions: read-out: %Inh ERK2
Sequence (P28482 whole entry): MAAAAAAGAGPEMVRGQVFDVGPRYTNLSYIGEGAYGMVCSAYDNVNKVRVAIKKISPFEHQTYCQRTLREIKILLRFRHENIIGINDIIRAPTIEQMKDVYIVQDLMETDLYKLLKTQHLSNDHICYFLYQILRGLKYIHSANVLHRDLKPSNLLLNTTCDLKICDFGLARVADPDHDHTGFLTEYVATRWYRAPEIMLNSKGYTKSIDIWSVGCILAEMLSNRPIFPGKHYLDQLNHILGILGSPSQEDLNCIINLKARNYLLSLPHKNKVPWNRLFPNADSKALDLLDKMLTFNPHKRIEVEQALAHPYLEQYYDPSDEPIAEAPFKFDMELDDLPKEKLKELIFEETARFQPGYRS
inhibition at 1 µM listing for selected compounds.
Report the figure in % without appending any unit label.

*Q* Which value of inhibition at 1 µM has been reported for Cc1ccc(NC(=O)Nc2cccc(C(F)(F)F)c2)cc1 [UNC10225187A] in the records?
*A* 0

Continuing:
*Q* Look up inhibition at 1 µM: O=c1cc(N2CCOCC2)nc2n(Cc3cccc(Cl)c3Cl)c(C3CC3)nn12 [UNC10225469A]
*A* 11

*Q* Field request: inhibition at 1 µM | item: COc1cccc(OC)c1C(=O)Nc1cccc(-c2nn3ccccc3c2-c2ccnc(Nc3cccc(F)c3)n2)c1 [UNC10225310A]
*A* 6

*Q* Fill in the blank: the reported inhibition at 1 µM of Cn1cc(-c2cnc(N)c3c(-c4ccc5c(c4)CCN5C(=O)Cc4ccccc4)csc23)cn1 [UNC10225012A] is ____.
*A* 0

*Q* I'd like to know its inhibition at 1 µM. The compound in question is CS(=O)(=O)Cc1ccc(Nc2nccc(-c3c(-c4cccc(NC(=O)C5CCCCC5)c4)nn4ncccc34)n2)cc1 [UNC10225159A]
*A* 0

* * *

Measured inhibition at 1 µM of individual entries
target: HPK1 (Homo sapiens); assay: KINOMEscan competition binding; details: read-out: %Inh HPK1
Sequence (Q92918 whole entry): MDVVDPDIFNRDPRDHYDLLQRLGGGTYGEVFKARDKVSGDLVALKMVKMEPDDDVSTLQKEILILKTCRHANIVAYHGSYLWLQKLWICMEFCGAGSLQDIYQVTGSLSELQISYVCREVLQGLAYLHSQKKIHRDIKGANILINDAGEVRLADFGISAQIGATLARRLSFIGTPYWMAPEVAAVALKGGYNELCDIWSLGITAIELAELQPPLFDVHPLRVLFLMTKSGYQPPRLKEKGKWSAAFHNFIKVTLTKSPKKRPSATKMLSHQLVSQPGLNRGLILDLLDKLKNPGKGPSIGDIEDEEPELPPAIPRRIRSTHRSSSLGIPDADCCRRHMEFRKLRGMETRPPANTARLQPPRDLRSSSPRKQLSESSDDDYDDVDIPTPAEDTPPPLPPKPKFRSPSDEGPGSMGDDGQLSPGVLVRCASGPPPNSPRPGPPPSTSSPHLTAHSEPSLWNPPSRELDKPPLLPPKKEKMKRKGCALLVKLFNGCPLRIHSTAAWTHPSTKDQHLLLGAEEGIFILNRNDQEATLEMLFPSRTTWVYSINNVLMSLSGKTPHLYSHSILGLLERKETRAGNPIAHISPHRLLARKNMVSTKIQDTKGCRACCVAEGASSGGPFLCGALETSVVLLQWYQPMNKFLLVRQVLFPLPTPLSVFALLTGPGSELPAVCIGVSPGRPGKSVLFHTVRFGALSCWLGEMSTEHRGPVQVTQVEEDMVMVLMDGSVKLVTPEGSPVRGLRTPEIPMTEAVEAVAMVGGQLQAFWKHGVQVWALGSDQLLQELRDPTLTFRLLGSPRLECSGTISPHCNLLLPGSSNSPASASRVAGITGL
Quick note: give the figure in %, leave out the unit.

See these solved cases before continuing.
*Q* Entry COc1cccc(OC)c1C(=O)Nc1cccc(-c2nn3ccccc3c2-c2ccnc(Nc3cccc(F)c3)n2)c1 [UNC10225310A] has what inhibition at 1 µM?
*A* 2

*Q* May I ask what inhibition at 1 µM has been recorded for Cn1cc(-c2cnc(N)c3c(-c4ccc5c(c4)CCN5C(=O)Cc4ccccc4)csc23)cn1 [UNC10225012A] ?
*A* 94

*Q* What value of inhibition at 1 µM has been recorded for this entry: Cc1ccc(NC(=O)Nc2cccc(C(F)(F)F)c2)cc1 [UNC10225187A]
*A* 0

*Q* Please report the recorded inhibition at 1 µM for O=c1cc(N2CCOCC2)nc2n(Cc3cccc(Cl)c3Cl)c(C3CC3)nn12 [UNC10225469A] .
*A* 14

Continuing:
*Q* Sample CS(=O)(=O)Cc1ccc(Nc2nccc(-c3c(-c4cccc(NC(=O)C5CCCCC5)c4)nn4ncccc34)n2)cc1 [UNC10225159A] — what was its inhibition at 1 µM?
*A* 14
